target: hGSTM1-1 (Homo sapiens, UniProt P09488); assay: biochemical; set-up: made in house; host or cells: E. coli; conditions: 25 μM pesticide; CDNB (1 mM)-GSH (2.5 mM) assay; mean of three assays, variation less than 5%; read-out: Inhibition (%)
Sequence (P09488 whole entry): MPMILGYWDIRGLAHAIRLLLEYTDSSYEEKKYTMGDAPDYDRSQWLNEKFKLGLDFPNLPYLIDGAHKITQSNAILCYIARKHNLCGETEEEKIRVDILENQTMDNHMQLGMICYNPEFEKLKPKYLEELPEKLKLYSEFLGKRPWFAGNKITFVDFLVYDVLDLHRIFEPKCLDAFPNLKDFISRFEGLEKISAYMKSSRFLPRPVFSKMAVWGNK
Answer each item with its documented inhibition at 25 µM.

COMPOUND: CON=C(C(=O)OC)c1ccccc1CON=C(C)c1cccc(C(F)(F)F)c1
inhibition at 25 µM: 2.88%
//
COMPOUND: CCC(C)(NC(=O)c1cc(Cl)c(C)c(Cl)c1)C(=O)CCl (centres unmarked) [Zoxamide]
inhibition at 25 µM: 20%
//
COMPOUND: Cc1cccc(C)c1N(Cn1cccn1)C(=O)CCl
inhibition at 25 µM: 19.7%
//
COMPOUND: CCNc1nc(Cl)nc(NC(C)(C)C)n1
inhibition at 25 µM: 12%

Give me inhibition at 25 µM for each of these compounds, listed below.
1. CC(C)N(C(=O)CCl)c1ccccc1
2. CC1(C)C(C=C(Cl)Cl)C1C(=O)OC(C#N)c1cccc(Oc2ccccc2)c1 (centres unmarked)
3. Cc1nc(N(C)C)nc(OC(=O)N(C)C)c1C

[A]
1. 11.2%
2. 0%
3. 52.3%

Hi team, please reply with inhibition at 25 µM for each item in this list.
1. CCOC(=O)OC1=C(c2cc(C)ccc2C)C(=O)N[C@]12CC[C@@H](OC)CC2
2. CCc1cccc(C)c1N(C(=O)CCl)C(C)COC (centres unmarked)
3. CCOC(=O)Nc1cccc(OC(=O)Nc2ccccc2)c1
4. COC(=O)Nc1cccc(OC(=O)Nc2cccc(C)c2)c1
5. CC1(C)C(C=C(Cl)Cl)C1C(=O)OCc1cccc(Oc2ccccc2)c1 (centres unmarked)

[A]
1. 29.3%
2. 9.2%
3. 0%
4. 16%
5. 11.2%

====

For each record, write down the corresponding inhibition at 25 µM.
target: hGSTM1-1 (Homo sapiens, UniProt P09488); assay: biochemical; parameters: made in house; host or cells: E. coli; details: 25 μM pesticide; CDNB (1 mM)-GSH (2.5 mM) assay; mean of three assays, variation less than 5%; read-out: Inhibition (%)
Answers are plain numbers, in %.

COMPOUND: CNC(=O)ON=C(C)SC [Methomyl]
OBS VALUE: 20
--
COMPOUND: CCCCOCN(C(=O)CCl)c1c(CC)cccc1CC [Butachlor, butachlor]
OBS VALUE: 35.3
--
COMPOUND: O=C(NC(=O)c1c(F)cccc1F)Nc1cc(Cl)c(F)c(Cl)c1F [Teflubenzuron]
OBS VALUE: 11.2
--
COMPOUND: CSC1=N[C@@](C)(c2ccccc2)C(=O)N1Nc1ccccc1 [Fenamidone]
OBS VALUE: 0

Then there is this compound:
[Q] What is its inhibition at 25 µM for hGSTM1-1 (Homo sapiens, UniProt P09488)? Entry: O=C(Nc1ccccc1-c1ccc(Cl)cc1)c1cccnc1Cl [Boscalid]
[A] 20.4
